assay: yeast display, Sf9 membrane polyspecificity reagent, FACS + sequencing; frameworks hold sequencing errors
reported endpoint: polyreactivity (PSR sort gate)

See these solved cases before continuing.
sequence	polyreactivity (PSR sort gate)
QVQLVESGGGLVQAGGSLRLSCAASGFIFRTYAMGWYRQAPGKERELVAAISGTTGSTYYADSVKGRFTISRDNAKYTVYLQMNSLKPEDTAVYFCAADYYWYIRYDYWGQGTQVTVSS	low polyreactivity
QVQLVESGGGLVQAGGSLRLSCAASGFIFYKYAMGWYRQAPGKERELVAAITRSGGSTYYADSVKGRFTISRDNAKNTVYLQMNSLKPEDTAVYYCAKRSYRARDAVPGGFDSWGQGTQVTVSS	high polyreactivity
QVQLVESGGGLVKAGGSLRLSCDASGLTFNANPMGWYRQEPGKESELVAAIDWIGVSTYYADSVKGRFTISRDNAKNTVYLQMNSLKPEDTAVYYCAAEYDYNFGGNDLWYYYWGQGTQVTVSS	high polyreactivity
QVQLVESGGGLVQAGGSLRLSCAASGSIFYSNAMGWYRQAPGKEREFVATITQTGSSTYDADSVKGRFTISRDNAKNTVYLQMNSLKPEVTAVYYCAVDWILYEYEDDFWYRYDYWGQGTQVTVSS	low polyreactivity
QVQLVESGGGLVQAGGSLRLSCAASGFTFWPYAMGWYRQAPGKERELVAAITWSGGRTYYADSVKGRFTISRDNAKNTVYLQMNSLKPEDTAVYYCNVDAYGYRPYRYYYWGQGTQVTVSS	high polyreactivity
QFQLVESGGGLVQAGASLRLSCAASGSIFDLNALGWYRQAPGKDRELVAAITRDSGITYYADSVKGRFKISRDNAKNTVYLQMNSLKPEDTAVYYCAADADSSSGDSWGQGTQVTVSS	low polyreactivity
QVQLVESGGGLVQAGGSLRLSCAASGSTFEVYTMGWYRQAAGKERELVADITWSGGNTYYADSVKGRFTISRDNAKNTVYLQMNSLKPEDTAVYYCAADYYHKTVYWYDYWGQGTQVTVSS	low polyreactivity
QVQLEDSGGGLVQAGGSLRLSCAASGSTFILNAMGWYRDAPGKERELVATISSSDTSTYYADSVKGRFTISRDNAKNTVYLQMNSLKPEDTAVYYCNADYYTTSYLQRVYHYGVEYDYWGQGTQVTVSS	low polyreactivity

Recorded polyreactivity (PSR sort gate) (sequence "QVQLVESGGGLVQAGGSLRLSSAASGSTFFSNAMGWYRQAPGKERELVATIRFGGGSTYADSVKGRFTISRDNAKNTVYLQMNSLKPEDTAVYYCAADDSDKRYTRSWYGYWGQGTQVAVSS" ): low polyreactivity

Recorded polyreactivity (PSR sort gate) (sequence "QVQLVESGGGLVQAGGSLRLSCAASGRTFGPYEMGWYTQAPGKERELVASISSADSTYYADSVKGRFTISRDNAKNTVYLQMYSLKPEDTAVYYCAAPSVGYYDPTDFDYWGQGTQVTVSS" ): low polyreactivity

Recorded polyreactivity (PSR sort gate) (sequence "QVQLVESGGGLVQAGGSLRLSCAASGSTFYTHAMGWYRQAPGKERELVAAISASVGSTYYADSVKGRFTISRDNAKNTVYLQMNSLKPEDTAVYYCAADVWASRRYDYWGQGTQVTVSS" ): low polyreactivity
